Every entry's value here was drawn from patent US11174268B2.

Tested system: UniProtKB Q9UQD0
Sequence (Q9UQD0 whole entry, looked up): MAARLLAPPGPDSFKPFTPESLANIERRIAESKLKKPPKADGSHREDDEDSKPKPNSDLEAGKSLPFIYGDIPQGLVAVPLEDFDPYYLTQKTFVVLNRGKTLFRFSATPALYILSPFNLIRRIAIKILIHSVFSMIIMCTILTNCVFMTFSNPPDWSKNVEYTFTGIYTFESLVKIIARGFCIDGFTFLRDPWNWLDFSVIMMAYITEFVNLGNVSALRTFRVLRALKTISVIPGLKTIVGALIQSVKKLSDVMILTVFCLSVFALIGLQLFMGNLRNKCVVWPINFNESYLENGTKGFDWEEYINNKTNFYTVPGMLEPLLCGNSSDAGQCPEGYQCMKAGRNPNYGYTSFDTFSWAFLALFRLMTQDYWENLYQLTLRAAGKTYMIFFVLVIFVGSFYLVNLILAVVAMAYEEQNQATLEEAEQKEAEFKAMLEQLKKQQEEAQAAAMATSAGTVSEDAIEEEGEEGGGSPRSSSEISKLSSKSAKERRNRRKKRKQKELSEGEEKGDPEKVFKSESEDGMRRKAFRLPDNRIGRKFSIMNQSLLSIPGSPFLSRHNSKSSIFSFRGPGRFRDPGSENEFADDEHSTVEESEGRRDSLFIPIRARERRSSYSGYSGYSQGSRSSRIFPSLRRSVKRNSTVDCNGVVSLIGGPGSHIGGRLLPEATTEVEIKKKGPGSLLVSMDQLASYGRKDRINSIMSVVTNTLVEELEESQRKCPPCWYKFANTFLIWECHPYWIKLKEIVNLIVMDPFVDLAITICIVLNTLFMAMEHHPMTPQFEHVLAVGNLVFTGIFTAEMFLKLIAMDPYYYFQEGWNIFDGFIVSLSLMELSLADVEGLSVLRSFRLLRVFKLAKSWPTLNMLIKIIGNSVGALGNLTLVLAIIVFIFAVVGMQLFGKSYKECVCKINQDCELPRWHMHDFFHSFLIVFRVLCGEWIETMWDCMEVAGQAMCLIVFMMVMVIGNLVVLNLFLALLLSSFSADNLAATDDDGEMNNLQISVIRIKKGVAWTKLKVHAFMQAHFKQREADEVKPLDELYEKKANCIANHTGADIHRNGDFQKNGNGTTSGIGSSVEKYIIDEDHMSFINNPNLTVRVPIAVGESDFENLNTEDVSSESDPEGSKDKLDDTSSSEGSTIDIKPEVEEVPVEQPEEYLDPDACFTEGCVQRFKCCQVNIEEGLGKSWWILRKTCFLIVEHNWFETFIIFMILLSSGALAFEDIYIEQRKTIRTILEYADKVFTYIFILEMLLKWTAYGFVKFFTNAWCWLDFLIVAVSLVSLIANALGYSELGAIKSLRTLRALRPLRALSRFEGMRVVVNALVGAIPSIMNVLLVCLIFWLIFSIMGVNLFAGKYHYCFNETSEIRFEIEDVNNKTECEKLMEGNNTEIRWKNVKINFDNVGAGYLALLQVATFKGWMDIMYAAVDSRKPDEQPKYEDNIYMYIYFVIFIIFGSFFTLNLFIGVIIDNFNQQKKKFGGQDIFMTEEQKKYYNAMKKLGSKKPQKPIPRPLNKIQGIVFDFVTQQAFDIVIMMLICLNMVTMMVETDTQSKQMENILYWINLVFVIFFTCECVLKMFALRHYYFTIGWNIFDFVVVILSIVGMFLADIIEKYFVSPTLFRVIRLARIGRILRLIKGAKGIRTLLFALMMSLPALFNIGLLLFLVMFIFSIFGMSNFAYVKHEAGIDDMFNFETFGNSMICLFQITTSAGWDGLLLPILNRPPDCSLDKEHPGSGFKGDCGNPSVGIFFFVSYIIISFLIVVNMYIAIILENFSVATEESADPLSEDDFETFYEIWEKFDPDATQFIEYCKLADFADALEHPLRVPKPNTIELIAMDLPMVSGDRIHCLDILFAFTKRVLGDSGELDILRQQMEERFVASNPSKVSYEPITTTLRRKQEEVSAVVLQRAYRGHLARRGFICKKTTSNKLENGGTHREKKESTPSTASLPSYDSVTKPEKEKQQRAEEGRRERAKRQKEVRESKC
Sequence (Q07699 whole entry partner, looked up): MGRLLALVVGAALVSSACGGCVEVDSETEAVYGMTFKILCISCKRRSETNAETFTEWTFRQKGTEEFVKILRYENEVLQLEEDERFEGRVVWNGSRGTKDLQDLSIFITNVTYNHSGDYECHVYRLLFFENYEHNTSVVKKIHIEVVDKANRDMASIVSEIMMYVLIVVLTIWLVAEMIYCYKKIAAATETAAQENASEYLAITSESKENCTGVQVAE
Assay: Sodium Influx Assay (Flux), NaV1.6;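 note: Tetracycline-induced cells, compounds applied for one hour at room temperature with modulators holding channels open, IC50 from percent inhibition of sodium influx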
Assay type: cell-based
Condition: Trex HEK293 cells, ANG2 dye, inactivated state
Structures can show the parent of a compound that is named as a salt.
Measured parameter: IC50 (µM)
Express your answer in µM, writing the number without its unit.

| Molecule | Unit annotation | IC50 |
| --- | --- | --- |
| CN(Cc1cccc(F)c1CNc1cc(F)c(S(=O)(=O)Nc2cscn2)c(F)c1)C1CCC1 [Example 179, formate] | µM | 0.08 |
| CC(C)N(C)Cc1cccc(F)c1CNc1cc(F)c(S(=O)(=O)Nc2ccon2)c(F)c1 [Example 201, 2,2,2-trifluoroacetate] | µM | 0.561 |
| O=S(=O)(Nc1nccs1)c1cc(Cl)c(NC2(c3ccccc3F)CCC2)cc1F | µM | 0.656 |

State its IC50: C[C@H](Nc1cc(F)c(S(=O)(=O)Nc2nccs2)cc1Cl)c1cccc2ccccc12
5.02

Read off the recorded IC50 for O=S(=O)(Nc1cscn1)c1cc(Cl)c(N[C@H]2C[C@H](N3CCC3)c3ccccc32)cc1F [Example 264, formate]
30

Identify measured IC50 associated with CN(Cc1c(F)ccc(F)c1CN1CCC1)c1cc(F)c(S(=O)(=O)Nc2cscn2)c(F)c1 [Example 284, 2,2,2-trifluoroacetate]
1.37

Tell me its IC50 given O=S(=O)(Nc1cscn1)c1c(F)cc(NC2(c3ccccc3)CC2)cc1F as the entry.
4.21

For the molecule C[C@H](Nc1ccc(S(=O)(=O)Nc2cscn2)c(F)c1Cl)c1cc(Cl)ccc1F , report IC50.
0.571

Return IC50 for the following molecule: Cc1c(NCc2c(Cl)ccc(F)c2CN2CCC2)cc(F)c(S(=O)(=O)Nc2cscn2)c1F [Example 313, 2,2,2-trifluoroacetate]
0.014
